# key: entry, value: pKi
- Experimental Target: Falcilysin (Plasmodium falciparum (isolate 3D7))
- Sequence (Q76NL8 whole entry): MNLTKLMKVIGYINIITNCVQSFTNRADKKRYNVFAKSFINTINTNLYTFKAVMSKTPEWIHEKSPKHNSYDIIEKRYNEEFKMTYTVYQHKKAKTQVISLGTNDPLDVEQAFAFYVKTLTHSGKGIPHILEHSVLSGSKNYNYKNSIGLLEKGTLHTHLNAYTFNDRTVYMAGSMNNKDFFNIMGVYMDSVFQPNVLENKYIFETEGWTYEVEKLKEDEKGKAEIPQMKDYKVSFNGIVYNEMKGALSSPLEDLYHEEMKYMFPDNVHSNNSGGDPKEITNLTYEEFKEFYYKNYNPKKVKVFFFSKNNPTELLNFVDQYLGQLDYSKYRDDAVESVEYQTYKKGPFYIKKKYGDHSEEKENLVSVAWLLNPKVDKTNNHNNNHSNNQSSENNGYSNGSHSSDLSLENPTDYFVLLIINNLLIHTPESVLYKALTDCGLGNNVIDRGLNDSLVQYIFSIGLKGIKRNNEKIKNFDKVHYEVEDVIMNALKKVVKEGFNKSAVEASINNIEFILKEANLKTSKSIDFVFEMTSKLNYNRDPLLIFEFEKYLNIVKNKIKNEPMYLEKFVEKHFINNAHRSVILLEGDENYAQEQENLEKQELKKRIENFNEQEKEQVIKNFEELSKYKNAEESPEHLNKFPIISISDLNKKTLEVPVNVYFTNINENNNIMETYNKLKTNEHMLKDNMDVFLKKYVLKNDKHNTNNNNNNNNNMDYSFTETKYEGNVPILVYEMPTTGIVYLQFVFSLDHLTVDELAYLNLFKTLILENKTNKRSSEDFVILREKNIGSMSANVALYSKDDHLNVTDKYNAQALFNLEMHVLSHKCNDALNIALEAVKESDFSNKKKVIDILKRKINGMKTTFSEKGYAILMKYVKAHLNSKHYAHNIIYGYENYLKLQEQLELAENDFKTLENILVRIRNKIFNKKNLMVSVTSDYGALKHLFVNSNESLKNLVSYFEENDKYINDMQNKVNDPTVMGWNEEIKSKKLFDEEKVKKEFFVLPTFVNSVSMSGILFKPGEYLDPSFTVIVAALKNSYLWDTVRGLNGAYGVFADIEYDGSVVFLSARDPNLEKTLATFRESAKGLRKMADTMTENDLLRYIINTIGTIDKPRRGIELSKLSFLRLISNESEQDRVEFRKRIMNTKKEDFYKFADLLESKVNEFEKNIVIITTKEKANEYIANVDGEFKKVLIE
- Method Notes: Inhibition of Plasmodium falciparum FLN
Friendly reminder that pKi comes from taking -log10 of the concentration in mol/L.

Examples from the recorded data:
Can you share its pKi? I mean this compound: CNC(=O)C1CN(S(=O)(=O)c2ccc(-c3ccccc3)cc2)CCN1S(=O)(=O)c1cccc(/C=C/c2ccccc2)c1 (centres undefined)
6.00

Can you share its pKi? I mean this compound: O=C(NO)C1CN(Cc2ccc(-c3ccccc3)cc2)CCN1S(=O)(=O)c1ccc(I)cc1 (centres undefined)
5.31

Can you share its pKi? I mean this compound: O=C(NO)C1CN(C(=O)c2ccc(-c3ccccc3)cc2)CCN1S(=O)(=O)c1ccc(-c2ccccc2)cc1 (centres undefined)
5.00

Can you share its pKi? I mean this compound: O=C(NO)C1CN(C(=O)c2ccc(-c3ccccc3)cc2)CCN1S(=O)(=O)c1ccc(I)cc1 (centres undefined)
5.40

Can you share its pKi? I mean this compound: O=C(NO)C1CN(Cc2ccc(-c3ccccc3)cc2)CCN1S(=O)(=O)c1ccc(Br)cc1 (centres undefined)
5.30

More entries:
Can you share its pKi? I mean this compound: O=C(NO)C1CN(C(=O)c2ccc3ccccc3c2)CCN1S(=O)(=O)c1ccc(Br)cc1 (centres undefined)
5.46

Can you share its pKi? I mean this compound: O=C(NO)C1CN(S(=O)(=O)c2ccc(/C=C/c3ccccc3)cc2)CCN1S(=O)(=O)c1ccc(-c2ccccc2)cc1 (centres undefined)
5.96
